assay: chemical genetic growth profiling, strain panel (AID 1159580);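 further: tested at 20 µM; growth read once vehicle control cultures reached saturation at 30 °C; 1 = growth at the plate median or of vehicle wells; lower values mean less growth of the strain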; settings: S. cerevisiae deletion strains, growth OD, locus YLR027C, strain aat2, hits give low values
In all, about 5,500 compounds went through this assay and about 2,000 (36%) were called active. Not shown: some 18% with an inconclusive outcome. The list shows a part of the results.
attribute.measured: normalized growth

These recorded examples may help you get a feel for the data.
CC(C)(C)NCC(O)COc1cccc2c1C[C@H](O)[C@H](O)C2 (some centres not stated) = 1 (inactive)
O=S(=O)(O)O = 0.985 (inactive)
CC1=CC(=O)C(C(C)C)=CC1=O = 0.638 (active)
O=C(O)c1ccccc1O = 0.997 (inactive)
C/C=C(\C)C(=O)O[C@@H]1c2c(ccc3ccc(=O)oc23)OC(C)(C)[C@@H]1OC(C)=O = 0.992 (inactive)
COC1=CC(C)[C@@H]2C[C@H]3OC(=O)C[C@H]4C(C)=C(OC)C(=O)C([C@@]34C)[C@@]2(C)C1=O (some centres not stated) = 0.992 (inactive)

Okay, now this compound:
The compound identified as Nc1ccc(S(=O)(=O)Nc2ncccn2)cc1 registered its normalized growth at 0.983 (inactive)

----------
experiment: chemical genetic growth profiling, strain panel (AID 1159580);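 further: tested at 20 µM; growth read once vehicle control cultures reached saturation at 30 °C; 1 = growth at the plate median or of vehicle wells; lower values mean less growth of the strain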; settings: S. cerevisiae deletion strains, growth OD, locus YDR477W, strain SNF1, hits give low values
The whole screen tested about 5,500 compounds, of which about 2,000 (36%) were called active. Roughly 18% stayed inconclusive and do not appear here. The list shows a part of the results.
Label criterion met when normalized growth is strictly below 0.9; at or above that, label criterion not met.

Study these solved cases before continuing.
N/C(=N/OC(=O)c1ccc([N+](=O)[O-])cc1)c1c(Cl)cccc1Cl = criterion met
N#Cc1ccc2[nH]cc(CCN(Cc3ccccc3)Cc3ccccc3)c2c1 = criterion not met

We now examine a further compound.
Q: Hello, I'm reviewing records and need to know if normalized growth of FC(F)(F)Oc1ccc(OCc2n[nH]c(=S)n2-c2ccc(Cl)cc2)cc1 is below 0.9. Could you check?
A: criterion not met

----------
Catalogue of compounds with associated normalized growth
experiment: chemical genetic growth profiling, strain panel (AID 1159580);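 further: tested at 20 µM; growth read once vehicle control cultures reached saturation at 30 °C; 1 = growth at the plate median or of vehicle wells; lower values mean less growth of the strain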; settings: S. cerevisiae deletion strains, growth OD, locus YBR135W, strain CKS1, hits give low values
The campaign covered roughly 5,500 compounds. About 2,000 (36%) were called active. About 18% were inconclusive and are not listed. Some of the results follow.
Reply with just the number.

COc1ccc(N=C2SCC(c3ccc(C)cc3)=NN2CCO)cc1 = 0.979
ONC(=Nc1ccccc1Cl)c1ccccc1Cl = 0.992
O=C(Nc1cc2ccccc2s1)N1CCN(Cc2c(F)cccc2Cl)CC1 = 0.986
O=C1/C(=C/c2c[nH]c3ccccc23)CSc2ccccc21 = 0.981
CCCCCCCCCCCCSc1ncn[nH]1 = 0.968

The compound identified as O=S(=O)(c1cc(Cl)ccc1Cl)N1CCc2ccccc2C1 registered its normalized growth at 0.971

The compound identified as CCn1nc(C)cc1C(=O)Sc1cccc(Br)c1 registered its normalized growth at 0.91

----------
assay: chemical genetic growth profiling, strain panel (AID 1159580);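 further: tested at 20 µM; growth read once vehicle control cultures reached saturation at 30 °C; 1 = growth at the plate median or of vehicle wells; lower values mean less growth of the strain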; details: S. cerevisiae deletion strains, growth OD, locus YOR069W, strain VPS5
The whole screen tested about 5,500 compounds, of which about 2,000 (36%) were called active. Not shown: some 18% with an inconclusive outcome. Cut-off read from the data, not from the text of the source: active = normalized growth mostly below about 0.91 (no sharp cut-off); inconclusive = no clear call, values can overlap the other calls; inactive = mostly above about 0.92. The list shows a part of the results.
Just give me one of these, please: T = active, F = inactive

Study these solved cases before continuing.
O=C(O)c1ccccc1O = F
COc1cc(C(=O)O)cc(OC)c1OC = F

Q: So what was the verdict on COc1cc(C(=O)N2CCOCC2)cc(OC)c1OC in this test?
A: F

Q: So what was the verdict on COC(=O)C(N)CS (centres undefined) in this test?
A: F

Q: So what was the verdict on O=C(/C=C(\O)c1ccccc1)c1ccccc1O in this test?
A: T

Q: So what was the verdict on C[C@]12CCC3C(CC[C@]4(O)C[C@@H](O)CC[C@]34C=O)[C@@]1(O)CCC2C1=CC(=O)OC1 (some centres undefined) in this test?
A: F

Q: So what was the verdict on CCCCCC(O)C1C(=O)OC(C)C(O)/C=C/C=C/C=C/C=C/C=C(\C)C(O)CC(O)CC(O)CC(O)CC(O)CC(O)CC1O (centres undefined) in this test?
A: F

Q: So what was the verdict on NC[C@H]1O[C@H](OC2[C@@H](N)C[C@@H](N)[C@H](O[C@H]3O[C@H](CO)[C@@H](O)[C@H](N)[C@H]3O)[C@H]2O)[C@H](O)[C@@H](O)[C@@H]1O (some centres undefined) in this test?
A: F

Q: So what was the verdict on C[C@H]1OC(O[C@H]2[C@@H](O)CC(O[C@H]3[C@@H](O)C[C@H](O[C@H]4CC[C@]5(C)C6CC[C@]7(C)[C@@H](C8=CC(=O)OC8)[C@@H](O)C[C@]7(O)[C@@H]6CC[C@@H]5C4)O[C@@H]3C)O[C@@H]2C)C[C@H](O)C1O (some centres undefined) in this test?
A: F
